experimental target: human recombinant his-tagged HSP90α (Homo sapiens, UniProt P07900)
Construct: purchased Prospec Technogene #HSP90
method notes: HSP90 enzyme assay (HTRF, competition with biotinylated Geldanamycin)
Assay type: binding
test settings: IC50 range; read-out: Enzyme Assay
pIC50: −log10 of the molar value.
A collection of compounds and their measured pIC50
observation type: pIC50

* CC(C)c1cc(C(=O)N2CCC(N[C@H](C(=O)OC3CCCC3)C3CCCCC3)CC2)c(O)cc1O | 6.00 to 7.00
* CC(C)c1cc(C(=O)N2CCC(N[C@@H](CO)C(=O)OC3CCCC3)CC2)c(O)cc1O | > 7.00
* CC(C)c1cc(C(=O)N2Cc3ccc(CCNC4(C(=O)OC5CCCC5)CCCC4)cc3C2)c(O)cc1O | > 7.00
* CC(C)C[C@H](NCc1cccc(CN(C)C(=O)c2cc(C(C)C)c(O)cc2O)c1)C(=O)O | > 7.00
* CC(C)c1cc(C(=O)N2CCC(CCN[C@H](C(=O)O)C(C)C)CC2)c(O)cc1O | > 7.00
* CC(C)C[C@H](NC[C@@H]1CCCN1C(=O)c1cc(C(C)C)c(O)cc1O)C(=O)OC1CCCC1 | < 6.00
* CC(C)c1cc(C(=O)N2CCC(CCN[C@H](C(=O)O)c3ccccc3)CC2)c(O)cc1O | > 7.00
